- assay.target: T1, human EL[331-459]-mouse EL-C2 tag (human/mouse chimera, UniProt Q9WVG5 21-500 (mouse entry))
- T1 chain: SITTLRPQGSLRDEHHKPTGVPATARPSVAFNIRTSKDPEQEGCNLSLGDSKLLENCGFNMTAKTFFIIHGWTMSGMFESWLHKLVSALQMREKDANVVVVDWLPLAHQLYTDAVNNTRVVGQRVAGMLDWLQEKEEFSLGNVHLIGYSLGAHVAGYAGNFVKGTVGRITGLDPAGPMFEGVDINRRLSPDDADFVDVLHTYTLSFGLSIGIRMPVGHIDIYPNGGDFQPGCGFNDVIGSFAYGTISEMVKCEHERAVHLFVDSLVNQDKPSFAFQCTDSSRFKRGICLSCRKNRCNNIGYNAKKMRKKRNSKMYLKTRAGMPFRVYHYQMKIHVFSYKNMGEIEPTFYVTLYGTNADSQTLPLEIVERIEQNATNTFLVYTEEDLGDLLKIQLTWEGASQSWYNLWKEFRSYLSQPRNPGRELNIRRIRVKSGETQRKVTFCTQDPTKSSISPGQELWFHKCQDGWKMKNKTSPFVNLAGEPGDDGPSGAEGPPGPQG
- test.method.notes: cell-based or functional assay

{"binder": "12B10 antibody (antibody, IgG2a, V domains shown) VH: QVTLKESGPGILKPSQTLSLTCSFSGFSLSTSGMGVGWIRQPSGKGLEWLAHIWWNDEKYYNPSLKSQLTISKDTSRNQVFLKITSVDTADTATYYCARSYDGSPFPSWGQGTLVTVSA VL: DIQMTQSPSSLSASLGGKVTITCKASQDINKYIAWFQHKPGKGPRLLMAYPFTLQPGIPSRFSGNGSGRDYSFSISNLEPEDIATYYCLQYDNLLWTFGGGTRLEIK", "Neutralizing activity_IC50, nM": 15}
{"binder": "41H8 antibody (antibody, IgG1, V domains shown) VH: QVTLKESGPGILQPSQTLSLTCSFSGFSLSTYGMGVGWIRQPSGKGLEWLAHIWWNENKYYNTDLKSRLTISKDTSNNQVFLKIASVDTADTATYYCARIGPGVPFDYWGQGTTITVSS VL: DIQMTQSPSSLSASLGGKVTITCKASQDINKFIAWYQHKPGKGPRLLIHYTSTLQPGIPSRFNGSGSGRDYSFTISNLEPEDIATYYCLQYDILTWTFGGGTKLEIK", "Neutralizing activity_IC50, nM": 15}
{"binder": "25E4 antibody (antibody, IgG2b, V domains shown) VH: QVALKESGPGILQPSQTLSLTCSFSGFSLSTSGMGVGWIRQPSGKGLEWLAHIWWHGNKYYSTALKSRLTISKDTSNNQVFLKIASVDTADTATYYCARISDGYPLDYWGQGTSVTVSS VL: DIQMTQSPSSLSASLGGKVTITCKASQDINKYIVWYQQKPGKGPRLLIHYTSTLQPGFPSRFSGSGSGRDYSLSITNLEPEDIATYYCLQYDNLLWTFGGGTKLEIK", "Neutralizing activity_IC50, nM": 6.9}

The values you see were collected from patent US20150025225A1.
